- experimental.target: Integrin alpha-V/beta-3 (Homo sapiens, UniProt P05106+P06756)
- Sequence (P05106 27-788 limits assumed): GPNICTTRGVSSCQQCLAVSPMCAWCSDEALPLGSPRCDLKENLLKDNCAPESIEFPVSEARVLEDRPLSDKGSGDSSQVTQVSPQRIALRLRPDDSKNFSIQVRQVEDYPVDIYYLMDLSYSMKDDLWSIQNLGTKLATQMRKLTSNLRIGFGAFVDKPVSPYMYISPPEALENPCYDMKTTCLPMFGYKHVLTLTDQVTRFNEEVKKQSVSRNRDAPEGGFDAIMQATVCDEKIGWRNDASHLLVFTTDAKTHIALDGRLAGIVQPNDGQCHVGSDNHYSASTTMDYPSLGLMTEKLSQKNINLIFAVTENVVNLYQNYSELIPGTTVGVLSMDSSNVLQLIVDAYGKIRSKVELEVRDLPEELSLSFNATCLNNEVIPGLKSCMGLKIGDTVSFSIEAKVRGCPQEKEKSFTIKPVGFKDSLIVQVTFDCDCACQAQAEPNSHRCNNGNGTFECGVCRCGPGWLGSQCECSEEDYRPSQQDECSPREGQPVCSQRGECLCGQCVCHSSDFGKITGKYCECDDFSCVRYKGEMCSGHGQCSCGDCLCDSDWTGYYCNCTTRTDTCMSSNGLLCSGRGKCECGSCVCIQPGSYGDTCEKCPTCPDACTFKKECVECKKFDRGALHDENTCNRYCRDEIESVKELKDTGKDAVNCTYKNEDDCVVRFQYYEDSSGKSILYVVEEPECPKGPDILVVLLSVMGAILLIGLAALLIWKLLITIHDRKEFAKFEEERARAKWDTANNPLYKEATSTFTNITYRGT
- Sequence (P06756 31-889 limits assumed): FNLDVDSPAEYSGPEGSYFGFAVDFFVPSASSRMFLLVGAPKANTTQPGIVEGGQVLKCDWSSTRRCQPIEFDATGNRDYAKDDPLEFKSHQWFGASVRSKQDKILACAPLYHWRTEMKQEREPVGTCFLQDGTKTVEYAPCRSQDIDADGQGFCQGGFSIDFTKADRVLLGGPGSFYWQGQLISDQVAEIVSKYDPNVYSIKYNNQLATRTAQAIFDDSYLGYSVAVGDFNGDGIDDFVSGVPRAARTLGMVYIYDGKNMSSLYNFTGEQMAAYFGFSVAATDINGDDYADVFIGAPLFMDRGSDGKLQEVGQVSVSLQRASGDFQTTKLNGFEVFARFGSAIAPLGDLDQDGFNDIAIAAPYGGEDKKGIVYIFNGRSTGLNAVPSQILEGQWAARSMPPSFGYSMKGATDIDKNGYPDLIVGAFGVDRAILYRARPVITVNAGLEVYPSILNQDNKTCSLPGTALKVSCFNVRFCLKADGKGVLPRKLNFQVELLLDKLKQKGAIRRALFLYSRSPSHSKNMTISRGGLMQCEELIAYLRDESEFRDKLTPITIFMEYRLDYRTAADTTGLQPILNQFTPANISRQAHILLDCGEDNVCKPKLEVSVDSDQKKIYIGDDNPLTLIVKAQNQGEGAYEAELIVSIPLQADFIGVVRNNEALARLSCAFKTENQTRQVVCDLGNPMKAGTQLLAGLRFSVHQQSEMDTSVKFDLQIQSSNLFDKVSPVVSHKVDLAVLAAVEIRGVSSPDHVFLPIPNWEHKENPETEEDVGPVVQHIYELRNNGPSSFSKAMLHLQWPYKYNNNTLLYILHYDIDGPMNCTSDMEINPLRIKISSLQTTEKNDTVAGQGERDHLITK
- Sequence (P06756 891-1048 limits assumed): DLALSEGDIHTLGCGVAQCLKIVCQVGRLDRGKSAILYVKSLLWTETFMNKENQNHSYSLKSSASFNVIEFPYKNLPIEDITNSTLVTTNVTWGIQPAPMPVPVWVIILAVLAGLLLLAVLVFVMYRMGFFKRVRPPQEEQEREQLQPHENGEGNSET
- assay.overview: Displacement of [125I]L-775,219 from human recombinant alphaV-beta3 integrin
measure: IC50 (nM)
One number for each entry, in nM.

Before answering, review these 3 worked examples.
COc1ccc([C@H](CC(=O)O)N(C)C(=O)CCCCc2nc3c(cc2NC(C)=O)CCCN3)cn1 | 0.6
COc1ccc([C@H](CC(=O)O)N(C)C(=O)CCCCc2nc3c(cc2C)CCCN3)cn1 | 0.3
COc1ccc([C@H](CC(=O)O)N(C)C(=O)CCCCc2nc3c(cc2N)CCCN3)cn1 | 0.4

Hi there! I need IC50 for each item below, if you can.
1. COc1ccc([C@H](CC(=O)O)N(C)C(=O)CCCCc2nc3c(cc2-c2ccccc2)CCCN3)cn1
2. COc1ccc([C@H](CC(=O)O)N(C)C(=O)CCCCc2nc3c(cc2C#N)CCCN3)cn1

1. 0.9
2. 16.5

Hi there! I need IC50 for each item below, if you can.
1. COc1ccc([C@H](CC(=O)O)N(C)C(=O)CCCCc2ccc3c(n2)NCCC3)cn1
2. COc1ccc([C@H](CC(=O)O)N(C)C(=O)CCCCc2nc3c(cc2NS(C)(=O)=O)CCCN3)cn1
3. C=Cc1cc2c(nc1CCCCC(=O)N(C)[C@@H](CC(=O)O)c1ccc(OC)nc1)NCCC2
4. COc1ccc([C@H](CC(=O)O)N(C)C(=O)CCCCc2nc3c(cc2Br)CCCN3)cn1

[0.7, 0.9, 0.3, 2.3]

Name the recorded IC50 for COc1ccc([C@H](CC(=O)O)N(C)C(=O)CCCCc2nc3c(cc2[N+](=O)[O-])CCCN3)cn1 . 36.7

* * *

- assay.overview: Hammett constant was determined
- Type: functional
Would you mind telling me the reported Sigmap of each entry?
Answers are plain numbers.

Before answering, review these 6 worked examples.
COc1ccc([C@H](CC(=O)O)N(C)C(=O)CCCCc2nc3c(cc2N)CCCN3)cn1 | -0.3
C=Cc1cc2c(nc1CCCCC(=O)N(C)[C@@H](CC(=O)O)c1ccc(OC)nc1)NCCC2 | -0.14
COc1ccc([C@H](CC(=O)O)N(C)C(=O)CCCCc2ccc3c(n2)NCCC3)cn1 | 0
COc1ccc([C@H](CC(=O)O)N(C)C(=O)CCCCc2nc3c(cc2C)CCCN3)cn1 | -0.14
COc1ccc([C@H](CC(=O)O)N(C)C(=O)CCCCc2nc3c(cc2Br)CCCN3)cn1 | 0.26
COc1ccc([C@H](CC(=O)O)N(C)C(=O)CCCCc2nc3c(cc2NS(C)(=O)=O)CCCN3)cn1 | 0.03

Hi there! I need Sigmap for each item below, if you can.
1. COc1ccc([C@H](CC(=O)O)N(C)C(=O)CCCCc2nc3c(cc2[N+](=O)[O-])CCCN3)cn1
2. COc1ccc([C@H](CC(=O)O)N(C)C(=O)CCCCc2nc3c(cc2NC(C)=O)CCCN3)cn1
3. COc1ccc([C@H](CC(=O)O)N(C)C(=O)CCCCc2nc3c(cc2-c2ccccc2)CCCN3)cn1
4. COc1ccc([C@H](CC(=O)O)N(C)C(=O)CCCCc2nc3c(cc2C#N)CCCN3)cn1

[0.81, 0, 0.05, 0.71]
